Tested on: H. influenzae 30063
measurement.description: MIC by agar dilution, H. influenzae 30063
Type: cell-based
protocol.conditions: Haemophilus influenzae, 30063; read-out: MIC against H. influenza (30063)
experimental.readout: MIC

As a guide, the following entries are already answered.
- CCN(CC)C(=O)COC(=O)[C@H]1[C@@H]2CN(c3c(F)cc(N4C[C@H](CNC(=O)C(F)F)OC4=O)cc3F)C[C@@H]21: > 64 µg/mL
- CC(=O)NC[C@H]1CN(c2ccc(N3CCOCC3)c(F)c2)C(=O)O1 [linezolid, reference compound]: 16 µg/mL
- CC(=O)NC[C@H]1CN(c2cc(F)c(N3C[C@@H]4[C@H](C3)[C@H]4NC(=O)Nc3ccccc3)c(F)c2)C(=O)O1: > 64 µg/mL
- CCN(CC)C(=O)COC(=O)[C@H]1[C@@H]2CN(c3c(F)cc(N4C[C@H](CNC(=O)C(Cl)Cl)OC4=O)cc3F)C[C@@H]21: > 64 µg/mL
- CC(=O)NC[C@H]1CN(c2cc(F)c(N3C[C@@H]4[C@H](C3)[C@H]4C(=O)N(C)C)c(F)c2)C(=O)O1: > 64 µg/mL

Answer with reported MIC of `COC(=O)[C@H]1[C@@H]2CN(c3c(F)cc(N4C[C@H](CNC(=O)C(F)F)OC4=O)cc3F)C[C@@H]21` > 64 µg/mL

----------
Tested on: S. pneumoniae UC9912
measurement.description: MIC by agar dilution, S. pneumoniae UC9912
Assay type: cell-based
protocol.conditions: Streptococcus pneumoniae, UC9912; agar dilution, Mueller Hinton agar, overnight at 35° C.; read-out: S. pneumoniae UC9912 MIC
experimental.readout: MIC (µg/mL)
The response must be a number in µg/mL with no trailing unit.

As a guide, the following entries are already answered.
- CC(=O)NC[C@H]1CN(c2ccc(N3CC4C(C3)N4C(C)=O)c(F)c2)C(=O)O1 (some centres unmarked) [Example 50]: 2
- CC(=O)NC[C@H]1CN(c2cc(F)c(N3CC4OC4C3)c(F)c2)C(=O)O1 (some centres unmarked) [Example 40]: 0.5
- CCC(=O)NC[C@H]1CN(c2cc(F)c(N3CC4OC4C3)c(F)c2)C(=O)O1 (some centres unmarked) [Example 41]: 0.5
- COCC(=O)N1C2CN(c3ccc(N4C[C@H](CNC(C)=O)OC4=O)cc3F)CC21 (some centres unmarked) [Example 51]: 2

Turning now to a further record.
Answer with reported MIC of CC(=O)NC[C@H]1CN(c2ccc(N3CC4C(C3)N4C(=O)COC(C)=O)c(F)c2)C(=O)O1 (some centres unmarked) [Example 52] 1
